Molecular target: recombinant homotrimeric HA, A/Vietnam/1203/04 H5N1 (Influenza A virus A/Vietnam/1203/04 (H5N1))
Assay: trimeric HA microarray, transfection set 2
Details: remark: other sources report otherwise
Reported endpoint: Trimeric HA Binding RLU
Write down the value, and be sure its unit follows.

[
  {
    "Binder": "TCN-527 (5086_C06) (antibody, V domains shown) VH: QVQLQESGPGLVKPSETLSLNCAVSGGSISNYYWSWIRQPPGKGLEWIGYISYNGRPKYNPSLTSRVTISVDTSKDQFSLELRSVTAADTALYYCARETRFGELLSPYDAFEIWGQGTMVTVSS VL: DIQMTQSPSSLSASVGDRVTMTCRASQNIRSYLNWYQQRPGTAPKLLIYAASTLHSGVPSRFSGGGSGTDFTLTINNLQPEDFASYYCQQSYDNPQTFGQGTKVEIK",
    "Reported endpoint": "Trimeric HA Binding RLU",
    "Value reported": "20600 RLU"
  },
  {
    "Binder": "TCN-528 (5087_P17) (antibody, V domains shown) VH: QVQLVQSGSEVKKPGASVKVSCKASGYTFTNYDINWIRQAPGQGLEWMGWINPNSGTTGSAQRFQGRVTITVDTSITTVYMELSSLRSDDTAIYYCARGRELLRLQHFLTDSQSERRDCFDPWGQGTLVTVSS VL: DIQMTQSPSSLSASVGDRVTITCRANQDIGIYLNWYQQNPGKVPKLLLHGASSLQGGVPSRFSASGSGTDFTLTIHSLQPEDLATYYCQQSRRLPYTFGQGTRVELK",
    "Reported endpoint": "Trimeric HA Binding RLU",
    "Value reported": "23300 RLU"
  },
  {
    "Binder": "TCN-563 (5237_B21) (antibody, V domains shown) VH: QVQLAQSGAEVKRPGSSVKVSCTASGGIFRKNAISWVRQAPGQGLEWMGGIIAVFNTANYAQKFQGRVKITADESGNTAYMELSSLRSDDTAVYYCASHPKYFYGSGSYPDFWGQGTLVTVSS VL: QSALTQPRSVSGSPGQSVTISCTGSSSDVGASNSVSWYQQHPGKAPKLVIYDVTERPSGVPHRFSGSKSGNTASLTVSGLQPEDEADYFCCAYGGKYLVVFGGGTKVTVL",
    "Reported endpoint": "Trimeric HA Binding RLU",
    "Value reported": "31500 RLU"
  }
]

Lookup: What value of measured Trimeric HA Binding RLU is listed for TCN-504 (3251_K17) (antibody, V domains shown) VH: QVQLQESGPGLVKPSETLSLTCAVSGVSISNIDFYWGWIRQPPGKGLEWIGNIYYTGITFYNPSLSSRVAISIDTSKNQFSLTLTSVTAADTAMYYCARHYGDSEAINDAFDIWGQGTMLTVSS VL: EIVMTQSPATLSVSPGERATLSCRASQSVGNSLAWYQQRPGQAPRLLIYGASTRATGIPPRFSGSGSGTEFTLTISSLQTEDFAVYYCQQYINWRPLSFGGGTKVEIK ?
Found: 15000 RLU
